Test system: HS 578T breast
Assay: NCI tumour cell line growth inhibition, 48 h
reported_endpoint: TGI (µM)
Report as a plain number; the unit µM is understood.

// below: answered compounds
compound="C#Cc1c(I)n(C2OC(CO[Si](C)(C)C(C)(C)C)C3OC(C)(C)OC32)c(=O)[nH]c1=O (stereo not given)" tgt="HS 578T breast" numeric_readout=66.8
compound=COc1c(CCl)cc(-c2cc(=O)c3ccccc3s2)cc1CCl tgt="HS 578T breast" numeric_readout=59.6
compound=COc1ccc(C(=O)COc2ccc(/C=C3\COc4ccc(OC)cc4C3=O)cc2)cc1 tgt="HS 578T breast" numeric_readout=34.2

// fetch HS 578T breast TGI for CC(C)(C[C@H]1CN(S(=O)(=O)c2cccc(C(F)(F)F)c2)c2cc(-c3cc(F)cc(OC(F)F)c3)ccc2O1)C(=O)O
27.8

Can you check C=C(Cl)C(C)(Cl)CCC(Br)C(C)(C)Cl (stereo not given) next?
57.8

---

Tested on: HCT-116 colon
Test: NCI tumour cell line growth inhibition, 48 h
Overview of recorded TGI for various compounds

compound=Cc1ncc(CCCN(C)C)cc1Nc1ncc2c(n1)-c1ccc(C(F)(F)F)cc1NC(=S)C2 reported_endpoint=TGI result="14.4 µM"
compound=O=C1CSC(/C(=N/Nc2ccccc2)c2nc3ccccc3[nH]2)=N1 reported_endpoint=TGI result="> 100 µM"
compound=O=c1cccc(C#CC#CC2=CCCCC2)o1 reported_endpoint=TGI result="3.67 µM"
compound=CSc1sc2ccccc2[s+]1 reported_endpoint=TGI result="> 100 µM"
compound="CN1C2CCC1CC(C)(O)C2 (configuration not stated)" reported_endpoint=TGI result="> 100 µM"

// fetch HCT-116 colon TGI for CC1(C)[C@@H](OC(N)=O)[C@H]2O[C@H]2[C@]2(C=O)[C@H]3CC[C@]4(C)[C@@H](c5ccc(=O)oc5)[C@@H](Cl)C[C@]4(O)C3=CC[C@@H]12
0.00853 µM

Can you check CC(C)(C)OC(=O)NCCCNC1(c2cc3ccccc3s2)CCCCC1 next?
24.8 µM

---

System: M14 melanoma
Experiment: NCI tumour cell line growth inhibition, 48 h; in the data active = GI50 below about 0.43 µM; inactive = the rest
Output constraint: value belongs to 1 (active), -1 (inactive)

The examples below pair each entry with its known result.
smiles_input=COc1cc2[nH]c(C(=O)c3cc(OC)c(OC)c(OC)c3)c(N)c2cc1C#CC1CC1 classification=-1
smiles_input=O=c1c2ccccc2c(=O)c2c1[nH]c1c(-c3ccccc3)c(-c3ccccc3)c(=O)c12 classification=-1
smiles_input=COc1cccc2c(=O)c3c(sc12)c(N1CCNCC1)nc1ccccc13 classification=-1

Which outcome was entered for the compound CC(=O)C(=CN1CCN(C(=O)c2ccco2)C1=S)C(C)=O in this test?
-1

Can you check C[C@]12CC[C@@H]3c4cc(OCC(F)(F)F)c(O)cc4/C(=N/O)C[C@H]3[C@@H]1CC[C@@H]2O next?
1

---

Test system: BT-549 breast
Assay: NCI tumour cell line growth inhibition, 48 h
reported_endpoint: TGI

// below: answered compounds
compound=COC(=O)C1=C(C)NC(C)=C(C(=O)OC)C1c1nc2sccn2c1[N+](=O)[O-] result="> 100 µM"
compound="C=CCOc1ccc(C2C(C(=O)OCC)C(=O)CC(C)(O)C2C(=O)OCC)cc1OC (stereo not given)" result="> 100 µM"

// fetch BT-549 breast TGI for CC(C)(C)C(=O)CC1=Nc2ccccc2SC1(O)CC(=O)C(C)(C)C (stereo not given)
51.1 µM

Can you check O=C1c2ccccc2C2(c3ccc(Cl)cc3)N[C@H]3CCCC[C@@H]3N12 (stereo not given in full) next?
> 100 µM

Can you check COc1c(CCl)cc(-c2cc(=O)c3ccccc3s2)cc1CCl next?
> 100 µM

---

Tested on: NCI-H460 lung
Experiment: NCI tumour cell line growth inhibition, 48 h
reported_endpoint: TGI (µM)
Report as a plain number; the unit µM is understood.

molecule="CC(C(O)Cc1ccccc1)N(C)N=Nc1ccc([N+](=O)[O-])cc1 (stereo not given)" numeric_readout=32.3

Okay, now this molecule:
Fill in: TGI of CCN(CC)c1ccc(N=Nc2ccc(-c3nc4ccc[n+](C)c4s3)cc2)cc1 is ___
21.5

---

Tested on: PC-3 prostate
Experiment: NCI tumour cell line growth inhibition, 48 h; in the data active = GI50 below about 0.43 µM; inactive = the rest
Output constraint: value belongs to true (active), false (inactive)

The examples below pair each entry with its known result.
smiles_input=COc1cc(/C=C/c2cc(/C=C/c3ccc(O)c(OC)c3)n(C(=O)Nc3ccc(C)cc3C)n2)ccc1O tgt="PC-3 prostate" classification=true
smiles_input=COc1cc(C(=O)c2cc(C)c3[nH]c4ccc(C)cc4c3c2C)cc(OC)c1OC tgt="PC-3 prostate" classification=true
smiles_input=CCSc1nc(SCC)c2cn[nH]c2n1 tgt="PC-3 prostate" classification=false
smiles_input=CN(CCC#N)c1ccc(/C=C(\C#N)c2ccc(Br)cc2)cc1 tgt="PC-3 prostate" classification=false

Which outcome was entered for the compound Cn1c(=O)c(Cc2ccccc2F)cc2cnc(NC3CCOCC3)nc21 in this test?
false

---

System: NCI-H460 lung
Assay: NCI tumour cell line growth inhibition, 48 h
reported_endpoint: TGI

compound="Nc1ccn(C2OC(CO)C(O)C2O)c(=O)c1 (stereo unspecified)" reported_endpoint=TGI result="> 625 µM"
compound=S=C(Nc1ccc2c(c1)oc1ccccc12)c1cccnc1 reported_endpoint=TGI result="> 100 µM"
compound=COc1ccc(/C=C/c2cc(OC)cc(=O)o2)cc1 reported_endpoint=TGI result="> 100 µM"
compound="COc1ccc(C2COc3cc(O)c(O)cc3C2)cc1 (stereo unspecified)" reported_endpoint=TGI result="213 µM"
compound="CC(C)CC(O)P(=O)(O)O (stereo unspecified)" reported_endpoint=TGI result="> 100 µM"

Okay, now this compound:
Fill in: TGI of CC(=O)N[C@H]1CSSC[C@@H](C(N)=O)NC(=O)[C@H](C(C)C)NC(=O)[C@H](C)NC(=O)[C@H](Cc2cnc[nH]2)NC1=O is ___
> 100 µM

---

Overview of recorded TGI for various compounds
System: NCI-H226 lung
Assay: NCI tumour cell line growth inhibition, 48 h

compound=Nc1nc(Cl)cc(NCC2(CO)CCCC2)n1 reported_endpoint=TGI result="> 100 µM"
compound=C#C[C@]1(O)CC[C@H]2[C@@H]3CCC4=C/C(=N/OC(=O)c5cccc6c(=O)c7ccccc7[nH]c56)CC[C@@H]4[C@H]3CC[C@@]21C reported_endpoint=TGI result="> 100 µM"
compound=CN1COCc2c1ccc1cc3ccc4c(c3nc21)COCN4S(C)(=O)=O reported_endpoint=TGI result="> 100 µM"
compound=CCOC(=O)NC(Nc1ccc([N+](=O)[O-])cc1)(C(F)(F)F)C(F)(F)F reported_endpoint=TGI result="> 100 µM"
compound="COc1ccc2nc(NC(=O)C(=O)C(C#N)c3ccc([N+](=O)[O-])cc3)sc2c1 (stereo unspecified)" reported_endpoint=TGI result="> 100 µM"

Fill in: TGI of Nc1ccc2cc3ccc(N)cc3nc2c1 is ___
4.3 µM [middle of 4 runs]

Can you check O=C1c2ccccc2C2(c3ccc(Cl)cc3)N[C@H]3CCCC[C@@H]3N12 (stereo partly specified) next?
> 100 µM

Can you check O=C1[C@@H]2C(c3ccccc3F)=NO[C@@H]2C(=O)N1c1ccc(Cc2ccc(N3C(=O)[C@H]4C(c5ccccc5F)=NO[C@H]4C3=O)cc2)cc1 next?
> 100 µM

Can you check COc1cccc(C#Cc2ccccc2C#CCCCCO)c1 next?
40.5 µM

Can you check COc1ccc(-c2nn(-c3ccc(NC(=O)Nc4cc(C(F)(F)F)cc(C(F)(F)F)c4)cc3)cc2-c2ccncc2)cc1Cl next?
34.2 µM

Can you check COc1cccc2c(=O)c3c(sc12)c(N1CCNCC1)nc1ccccc13 next?
3.18 µM

Can you check CCN1CCC(O)(/C=C/c2ccc(C)cc2C)C(C(=O)/C=C/c2ccc(C)cc2C)C1 (stereo unspecified) next?
7.79 µM

Can you check C/C(CC(=O)NCCc1ccccc1)=N\NC(=O)C[n+]1ccccc1 next?
> 100 µM

Can you check CCOc1ccc(/C=C2/C(=O)N=C(NC(C)=O)N2C)cc1 next?
> 100 µM

Can you check CC(=O)N[C@H]1CSSC[C@@H](C(N)=O)NC(=O)[C@H](C(C)C)NC(=O)[C@H](C)NC(=O)[C@H](Cc2cnc[nH]2)NC1=O next?
> 100 µM

Can you check COc1ccc2c(c1)CCN1CCc3ccccc3CC21 (stereo unspecified) next?
83.5 µM

Can you check Nc1ccc(S(=O)(=O)Nc2nccs2)cc1 next?
> 100 µM

Can you check C#Cc1c(I)n(C2OC(CO[Si](C)(C)C(C)(C)C)C3OC(C)(C)OC32)c(=O)[nH]c1=O (stereo unspecified) next?
32.5 µM

Can you check COc1c(CCl)cc(-c2cc(=O)c3ccccc3s2)cc1CCl next?
> 31.6 µM

Can you check ClCC[N+]12CC[N+](CCCl)(CC1)C2 next?
> 100 µM

Can you check C=C([C@@]1(O)C[C@H]2[C@H](CCC2(OC)OC)[C@@H]2c3ccccc3O[C@@H]21)[Si](C)(C)C next?
> 100 µM

Can you check CC12CCC(O)CC1CCC1C2CCC2(C)C(C(=O)CC(O)C(F)(F)F)CCC12 (stereo unspecified) next?
> 100 µM
